system-name: Somatostatin receptor type 4 (Rattus norvegicus, UniProt P30937)
Sequence (P30937 whole entry): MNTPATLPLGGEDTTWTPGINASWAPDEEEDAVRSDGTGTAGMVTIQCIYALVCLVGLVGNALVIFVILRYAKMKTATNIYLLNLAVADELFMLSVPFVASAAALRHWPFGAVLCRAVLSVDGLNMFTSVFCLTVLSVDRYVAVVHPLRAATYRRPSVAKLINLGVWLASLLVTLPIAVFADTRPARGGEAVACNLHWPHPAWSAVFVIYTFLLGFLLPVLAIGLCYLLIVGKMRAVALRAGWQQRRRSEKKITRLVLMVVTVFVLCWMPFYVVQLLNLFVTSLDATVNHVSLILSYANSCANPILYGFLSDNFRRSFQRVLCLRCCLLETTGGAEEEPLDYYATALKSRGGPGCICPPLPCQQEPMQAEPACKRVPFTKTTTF
pKi: −log10 of the molar value. Where a SMILES comes first, the peptide text is derived from it. Bridges are numbered along the chain shown (N, C = ends). [ ]: non-standard residue; d: D form. The star is where a group is joined. ξ: configuration not given here. NH(1-naphthylmethyl) = c1ccc2c(CN*)cccc2c1; 2Nal = N[C@@H](Cc1ccc2ccccc2c1)C(=O)O; d1Nal = N[C@H](Cc1cccc2ccccc12)C(=O)O; d2Nal = N[C@H](Cc1ccc2ccccc2c1)C(=O)O; Thr(3ξ) = CC(O)[C@H](N)C(=O)O; Aoc = NCCCCCCCC(=O)O; Ahp = NCCCCCCC(=O)O; Bn = c1ccc(C*)cc1; ξC = NC(CS)C(=O)O
We use 8 as the dividing line for pKi: on or above the line is t, below is f.

Please tell me: is the compound C[C@@H](OCc1ccccc1)[C@@H]1NC(=O)[C@H](CCCCN)NC(=O)[C@@H](Cc2c[nH]c3ccccc23)NC(=O)[C@H](Cc2ccccc2)NC(=O)CCCCCCCNC1=O [c[Aoc-Phe-D-Trp-Lys-Thr(Bzl)]] (cyclo([Aoc]F[dW]KT(Bn))) at or over 8 in terms of pKi? f

In plain terms: is recorded pKi at least 8 for CC(O)C1NC(=O)C(CCCCN)NC(=O)C(Cc2c[nH]c3ccccc23)NC(=O)C(Cc2ccc(O)cc2)NC(=O)C(NC(=O)C(N)Cc2ccccc2)CSSCC(C(=O)NCc2cccc3ccccc23)NC1=O (centres undefined) [BIM 23060] (H-FCYWKTC-{NH(1-naphthylmethyl)}; disulfide 2-7; configuration not given here) ? t

Decide: pKi of CC1NC(=O)C(CCCCN)NC(=O)C(Cc2c[nH]c3ccccc23)NC(=O)C(Cc2ccc(O)cc2)NC(=O)C(NC(=O)C(N)Cc2ccccc2)CSSCC(C(=O)NCc2cccc3ccccc23)NC1=O (centres undefined) [BIM 23034] (H-FCYWKAC-{NH(1-naphthylmethyl)}; disulfide 2-7; configuration not given here) >= 8? t

Identify whether the reported pKi of the following compound is 8 or greater: C[C@@H](O)[C@@H]1NC(=O)[C@H](CCCCN)NC(=O)[C@@H](Cc2c[nH]c3ccccc23)NC(=O)[C@H](Cc2ccccc2)NC(=O)[C@@H]2CCCN2C(=O)[C@H](Cc2ccccc2)NC1=O (cyclo(PF[dW]KTF)) t

# check: pKi of C[C@@H](O)[C@@H]1NC(=O)[C@H](CCCCN)NC(=O)[C@@H](Cc2c[nH]c3ccccc23)NC(=O)[C@H](Cc2ccccc2)NC(=O)[C@@H]2CSSCC(NC1=O)C(=O)NCCCCCCC(=O)N2 (cyclo([Ahp]CF[dW]KT[ξC]); disulfide 2-7) is greater than or equal to 8 t

Decide: pKi of CC(C)[C@@H]1NC(=O)[C@@H](CCCCN)NC(=O)[C@@H](Cc2c[nH]c3ccccc23)NC(=O)[C@@H](Cc2ccc(O)cc2)NC(=O)[C@@H](C)N(C)C(=O)[C@@H](Cc2ccccc2)NC1=O >= 8? f

Does pKi meet or surpass 8 for CC(C)[C@H](NC(=O)[C@H](CCCCN)NC(=O)[C@@H](Cc1c[nH]c2ccccc12)NC(=O)[C@H](Cc1ccc(O)cc1)NC(=O)[C@H](Cc1ccccc1)NC(=O)[C@H](N)Cc1ccccc1)C(=O)N[C@@H](Cc1ccccc1)C(=O)N[C@H](Cc1cccc2ccccc12)C(N)=O [BIM 23056] (H-[dF]FY[dW]KVF[d1Nal]-NH2) ? f

Can CC(O)[C@H](NC(=O)[C@H](CCCCN)NC(=O)[C@@H](Cc1c[nH]c2ccccc12)NC(=O)[C@H](Cc1ccccc1)NC(=O)[C@@H](C)NC(=O)[C@@H](N)Cc1ccccc1)C(=O)N[C@@H](C)C(=O)N[C@H](C(N)=O)[C@@H](C)O (some centres undefined) [BIM 23051] (H-F[dA]F[dW]K[Thr(3ξ)]AT-NH2) be said to have pKi at or above 8? f

In plain terms: is recorded pKi at least 8 for NCCCC[C@@H]1NC(=O)[C@@H](Cc2c[nH]c3ccccc23)NC(=O)[C@H](Cc2ccccc2)NC(=O)CCCCCCNC(=O)[C@H](COCc2ccccc2)NC1=O [c[Aha-Phe-D-Trp-Lys-Ser(Bzl)]] (cyclo([Ahp]F[dW]KS(Bn))) ? f

Can CC(C)[C@@H]1NC(=O)[C@H](CCCCN)NC(=O)[C@@H](Cc2c[nH]c3ccccc23)NC(=O)[C@H](Cc2ccc(O)cc2)NC(=O)[C@@H](NC(=O)[C@H](N)Cc2ccc3ccccc3c2)CSSC[C@@H](C(=O)N[C@@H](Cc2ccc3ccccc3c2)C(N)=O)NC1=O [BIM 23042] (H-[d2Nal]CY[dW]KVC[2Nal]-NH2; disulfide 2-7) be said to have pKi at or above 8? t

Decide: is the reported value of pKi for C[C@@H](O)[C@@H]1NC(=O)[C@H](CCCCN)NC(=O)[C@@H](Cc2c[nH]c3ccccc23)NC(=O)[C@H](Cc2c[nH]c3ccccc23)NC(=O)[C@H](Cc2ccccc2)NC(=O)CCCCCCNC(=O)[C@H](Cc2ccccc2)NC1=O [L-362855] (cyclo([Ahp]FW[dW]KTF)) equal to or greater than 8? t

---

For each of the compounds below, state its Ki.
Where a SMILES comes first, the peptide text is derived from it. Bridges are numbered along the chain shown (N, C = ends). The star is where a group is joined. NH(1-naphthylmethyl) = c1ccc2c(CN*)cccc2c1
# number only, unit nM dropped from output

Known value: Somatostatin receptor type 4 (Rattus norvegicus, UniProt P30937) Ki of the compound CC(C)C1NC(=O)C(CCCCN)NC(=O)C(Cc2c[nH]c3ccccc23)NC(=O)C(Cc2ccc(O)cc2)NC(=O)C(C)N(C)C(=O)C(Cc2ccccc2)NC1=O (stereo not drawn) equals 5.5

For CC[C@@H]1NC(=O)[C@H](CCCCN)NC(=O)[C@@H](Cc2c[nH]c3ccccc23)NC(=O)[C@H](Cc2ccc(O)cc2)NC(=O)[C@@H](NC(=O)[C@H](N)Cc2ccccc2)CSSC[C@@H](C(=O)N[C@H](C(N)=O)[C@@H](C)O)NC1=O on Somatostatin receptor type 4 (Rattus norvegicus, UniProt P30937), measured Ki was 0.18

Result for NCCCCC1NC(=O)C(Cc2c[nH]c3ccccc23)NC(=O)C(Cc2ccc(O)cc2)NC(=O)C(NC(=O)C(N)Cc2ccccc2)CSSCC(C(=O)NCc2cccc3ccccc23)NC(=O)C(CO)NC1=O (stereo not drawn) [NC4-28B] (H-FCYWKSC-{NH(1-naphthylmethyl)}; disulfide 2-7; configuration not given here) , tested on Somatostatin receptor type 4 (Rattus norvegicus, UniProt P30937), Ki: 1

---

*1 amine or outer side, *2 acyl side, *3 side chain or, on linkers, in order; H or OH if unused. Where a SMILES comes first, the peptide text is derived from it. [ ]: non-standard residue; d: D form. X3 = C[C@@H](C(=O)[*:2])N(Cc1ccc2ccccc2c1)[*:1]; dPhe(4-Cl) = N[C@H](Cc1ccc(Cl)cc1)C(=O)O; 2Nal = N[C@@H](Cc1ccc2ccccc2c1)C(=O)O
endpoint: Ki (nM)
Lab book: enter the figure in nM, no units written.

For CC(C)[C@H](NC(=O)[C@H](CCCCN)NC(=O)[C@@H](Cc1c[nH]c2ccccc12)NC(=O)[C@H](Cc1ccc(O)cc1)NC(=O)[C@H](Cc1ccccc1)NC(=O)[C@H](N)Cc1ccccc1)C(=O)N[C@@H](Cc1ccccc1)C(=O)N[C@H](Cc1ccccc1)C(N)=O (H-[dF]FY[dW]KVF[dF]-NH2) on Somatostatin receptor type 4 (Rattus norvegicus), measured Ki was 3.3

Form field, Ki with Somatostatin receptor type 4 (Rattus norvegicus), item CC(C)[C@H](NC(=O)[C@H](CCCCN)NC(=O)[C@@H](Cc1c[nH]c2ccccc12)NC(=O)[C@H](Cc1ccc(O)cc1)NC(=O)[C@H](C)NCc1ccc2ccccc2c1)C(=O)N[C@@H](C)C(=O)N[C@H](C(N)=O)[C@@H](C)O [D-Nal-Ala-Tyr-D-Trp-Lys-Val-Ala-Thr-NH2] (H-[X3]Y[dW]KVAT-NH2) : 146

Simply: CC(C)[C@@H]1NC(=O)[C@H](CCCCN)NC(=O)[C@@H](Cc2c[nH]c3ccccc23)NC(=O)[C@H](Cc2ccc(O)cc2)NC(=O)[C@@H](NC(=O)[C@H](N)Cc2ccc3ccccc3c2)CSSC[C@@H](C(=O)N[C@H](C(N)=O)[C@@H](C)O)NC1=O , Somatostatin receptor type 4 (Rattus norvegicus), Ki = 0.1

Form field Ki for item CC(C)[C@H](NC(=O)[C@H](CCCCN)NC(=O)[C@@H](Cc1c[nH]c2ccccc12)NC(=O)[C@H](Cc1ccc(O)cc1)NC(=O)[C@H](C)NC(=O)[C@H](N)Cc1ccc(Cl)cc1)C(=O)N[C@@H](C)C(=O)N[C@@H](Cc1ccc2ccccc2c1)C(N)=O [CAS_150155-67-2] (H-[dPhe(4-Cl)]AY[dW]KVA[2Nal]-NH2) on Somatostatin receptor type 4 (Rattus norvegicus): 14
